- TESTED_SYSTEM: Free fatty acid receptor 1 (Homo sapiens, UniProt O14842)
- Sequence (O14842 whole entry): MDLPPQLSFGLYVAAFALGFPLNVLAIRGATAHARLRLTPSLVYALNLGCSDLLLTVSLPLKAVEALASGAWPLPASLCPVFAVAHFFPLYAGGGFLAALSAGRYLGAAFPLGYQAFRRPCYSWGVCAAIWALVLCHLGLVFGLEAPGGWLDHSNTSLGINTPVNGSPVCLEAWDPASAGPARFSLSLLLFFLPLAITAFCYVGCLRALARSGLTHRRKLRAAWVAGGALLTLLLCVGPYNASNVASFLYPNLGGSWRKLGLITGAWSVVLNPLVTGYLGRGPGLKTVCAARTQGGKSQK
- ASSAY_DETAILS: Agonist activity at FFAR1 expressed in HEK-EM293 cells assessed as calcium influx by FLIPR assay
- Assay type: functional, cell-based
- STUDY_CONDITIONS: HEK293
The source made the active and inactive calls. No cut-off for these calls is given here.
MEASURED_PROPERTY: Activity

STRUCTURE	VALUE_REPORTED
COc1ccc(CNC(=O)[C@H](C)c2ccc([N+](=O)[O-])cc2)cc1	inactive
O=C(O)CCN1C(=O)/C(=C\c2cccc3ccccc23)SC1=S	inactive
O=C(c1ccccc1)c1ccc(NC(=O)c2ccccc2C(=O)O)cc1	inactive
O=C(O)CCN1C(=O)/C(=C\c2c[nH]c3ccccc23)SC1=S	inactive
COc1ccc(CNC(=O)/C=C\c2ccc([N+](=O)[O-])cc2)cc1	inactive
O=C(Nc1ccc(OCc2ccccc2)cc1)c1cccc([N+](=O)[O-])c1	inactive
O=C(O)CCN1C(=O)/C(=C\c2ccncc2)SC1=S	inactive

###

- TESTED_SYSTEM: Free fatty acid receptor 1 (Homo sapiens, UniProt O14842, N244A)
- Sequence (O14842 whole entry N244A): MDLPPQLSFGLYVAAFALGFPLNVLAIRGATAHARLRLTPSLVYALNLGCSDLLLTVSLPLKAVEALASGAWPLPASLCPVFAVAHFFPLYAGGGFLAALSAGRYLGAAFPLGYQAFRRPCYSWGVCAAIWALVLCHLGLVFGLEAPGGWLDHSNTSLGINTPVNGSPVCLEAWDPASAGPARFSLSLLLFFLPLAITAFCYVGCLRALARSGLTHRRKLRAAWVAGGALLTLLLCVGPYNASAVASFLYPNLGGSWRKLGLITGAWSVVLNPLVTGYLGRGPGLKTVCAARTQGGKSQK
- ASSAY_DETAILS: Activity at FFAR1 N244A mutant expressed in HEK-EM293 cells assessed as calcium influx by FLIPR assay

STRUCTURE	EC50
O=C(O)CSc1nnc(SCc2cccc3ccccc23)s1	≥ 100 µM
O=C(O)CCCCCN1C(=O)/C(=C\c2cccs2)SC1=S	> 30 µM

###

- TESTED_SYSTEM: Free fatty acid receptor 1 (Homo sapiens, UniProt O14842)
- ASSAY_DETAILS: Antagonist activity at FFAR1 expressed in HEK-EM293 cells assessed as inhibition calcium influx by FLIPR assay
MEASURED_PROPERTY: IC50 (µM)

STRUCTURE	VALUE_REPORTED
O=C(Nc1ccccc1)c1cccc(Oc2ccc([N+](=O)[O-])cc2)c1	5.3
O=C(NCc1cccc(Oc2ccccc2)c1)c1ccc([N+](=O)[O-])cc1	2.8

###

- TESTED_SYSTEM: Free fatty acid receptor 1 (Homo sapiens, UniProt O14842, H86F)
- ASSAY_DETAILS: Activity at FFAR1 H86F mutant expressed in HEK-EM293 cells assessed as calcium influx by FLIPR assay
EC50 values by entry

STRUCTURE	EC50
O=C(O)CSc1nnc(SCc2cccc3ccccc23)s1	≥ 100 µM
O=C(O)CCCCCN1C(=O)/C(=C\c2cccs2)SC1=S	> 10 µM

###

- TESTED_SYSTEM: Free fatty acid receptor 1 (Homo sapiens, UniProt O14842, H137F)
- Sequence (O14842 whole entry H137F): as the sequence (O14842 whole entry N244A) above, with H137F, A244N counted along it
- ASSAY_DETAILS: Activity at FFAR1 H137F mutant expressed in HEK-EM293 cells assessed as calcium influx by FLIPR assay
MEASURED_PROPERTY: EC50 (µM)

STRUCTURE	VALUE_REPORTED
O=C(O)CCCCCN1C(=O)/C(=C\c2cccs2)SC1=S	7.8
O=C(O)CSc1nnc(SCc2cccc3ccccc23)s1	4.3

###

- TESTED_SYSTEM: Free fatty acid receptor 1 (Homo sapiens, UniProt O14842)
- ASSAY_DETAILS: Agonist activity at FFAR1 expressed in HEK-EM293 cells assessed as calcium influx by FLIPR assay
- Format: functional, cell-based, HEK293
pEC50: −log10 of the molar value.

STRUCTURE	pEC50
O=C(O)CCCN1C(=O)/C(=C\c2cccs2)SC1=S	4.72
O=C(O)c1ccc(NCc2ccc3c(c2)OCO3)cc1	4.61
O=C(O)CCCN1C(=O)/C(=C\c2ccc(F)cc2)SC1=S	4.65
O=C(O)CSc1nnc(SCc2cccc3ccccc23)s1	5.44
O=C(O)CCCCCN1C(=O)/C(=C\c2cccc3ccccc23)SC1=S	4.91
COc1ccc(CSc2nnc(SCc3ccc(C(=O)O)cc3)s2)cc1	4.82
COC(=O)CSc1nnc(SCc2ccccc2)s1	4.78
O=C(O)c1cccc(NCc2cccc(OCc3ccccc3)c2)c1	5.09
O=C(O)CCCN1C(=O)/C(=C\c2ccco2)SC1=S	4.77
O=C(O)c1ccc(NC(=O)c2ccc(C(=O)c3ccccc3)cc2)cc1	4.79
O=C(O)CCCCCN1C(=O)/C(=C\c2cccs2)SC1=S	5.12
C=CCOc1ccc(CNc2cccc(C(=O)O)c2)cc1	4.84

###

- TESTED_SYSTEM: Free fatty acid receptor 1 (Homo sapiens)
- ASSAY_DETAILS: Activity at FFAR1 expressed in HEK-EM293 cells assessed as calcium influx relative to GW-9508 by FLIPR assay
- Type: functional, cell-based
- Design: concentration or dose not given beside the values
- STUDY_CONDITIONS: HEK293

STRUCTURE	UNIT	Activity
O=C(O)CCCCCN1C(=O)/C(=C\c2cccs2)SC1=S	%	59
COc1ccc(CSc2nnc(SCc3ccc(C(=O)O)cc3)s2)cc1	%	40
C=CCOc1ccc(CNc2cccc(C(=O)O)c2)cc1	%	49
O=C(O)c1ccc(NC(=O)c2ccc(C(=O)c3ccccc3)cc2)cc1	%	56
O=C(O)CCCN1C(=O)/C(=C\c2ccco2)SC1=S	%	44
O=C(O)c1ccc(NCc2ccc3c(c2)OCO3)cc1	%	50
COC(=O)CSc1nnc(SCc2ccccc2)s1	%	41
O=C(O)CCCCCN1C(=O)/C(=C\c2cccc3ccccc23)SC1=S	%	100
O=C(O)c1cccc(NCc2cccc(OCc3ccccc3)c2)c1	%	52
O=C(O)CCCN1C(=O)/C(=C\c2ccc(F)cc2)SC1=S	%	26
O=C(O)CSc1nnc(SCc2cccc3ccccc23)s1	%	100
O=C(O)CCCN1C(=O)/C(=C\c2cccs2)SC1=S	%	43

###

- TESTED_SYSTEM: Free fatty acid receptor 1 (Homo sapiens, UniProt O14842, R183A)
- ASSAY_DETAILS: Activity at FFAR1 R183A mutant expressed in HEK-EM293 cells assessed as calcium influx by FLIPR assay
EC50 values by entry
MEASURED_PROPERTY: EC50

STRUCTURE	VALUE_REPORTED
O=C(O)CCCCCN1C(=O)/C(=C\c2cccs2)SC1=S	> 30 µM
O=C(O)CSc1nnc(SCc2cccc3ccccc23)s1	≥ 100 µM
